assay: Mycobacterium tuberculosis growth inhibition, primary screen (AID 1259343); settings: at 10 µM, hits give high values
In all, about 6,200 compounds went through this assay and about 2,900 (47%) were called active. So high a share suggests a set chosen from earlier hits. This is one part of the list.
True means recorded inhibition is 10% or above; False means it is below 10%.

In: # bool: inhibition of O=C(CN1CCCCCC1)Nc1ccc(C(F)(F)F)cc1 >= 10%
Out: True

----------
Exercise: state measured inhibition for each of the compounds provided.
assay: Mycobacterium tuberculosis growth inhibition, primary screen (AID 1259343); settings: at 10 µM, hits give high values
Among all 6,200 compounds or so, about 2,900 (47%) were called active. So high a share suggests a set chosen from earlier hits. The list shows a part of the results.
Answers are plain numbers, in %.

The cases that follow already have their inhibition on record.
>>> readout_number("Cc1cc(=O)[nH]c(-n2nc(C3CC3)cc2NC(=O)c2ccccc2F)n1")
101
>>> readout_number("O=[N+]([O-])c1ccc(Sc2ccc([N+](=O)[O-])cc2)cc1")
57.3
>>> readout_number("CCc1ccc(N2C(=O)C3N=NN(Cc4ccc(C)cc4)C3C2=O)cc1 (configuration not stated)")
60.1
>>> readout_number("O=S(=O)(Nc1ccc(Br)cc1Cl)c1ccc(F)cc1")
50.5
>>> readout_number("c1ccc2c(c1)[I+]c1ccccc1-2")
101

Hey, can you go through the list below and give me inhibition for every item?
1. CCOC(=O)c1ccc(N2CN=c3sc(=Cc4ccccc4)c(=O)n3C2)cc1
2. CS(=O)(=O)c1nc(-c2cccs2)cc(C(F)(F)F)n1

Out:
[88.9, 101]

Hey, can you go through the list below and give me inhibition for every item?
1. O=C(O)c1cc(Oc2ccc([N+](=O)[O-])cc2)cc(Oc2ccc([N+](=O)[O-])cc2)c1
2. O=C(NC1CCCCC1)c1cnccn1
3. CS(=O)(=O)c1nc(-c2ccccc2)cc(C(F)(F)F)n1
4. O=[N+]([O-])c1ccc(C2SCCS2)cc1
5. CC(=NOCc1cccc(CON=C(C)c2ccccc2)c1)c1ccccc1
6. O=C(NCc1ccc(Oc2ccc(F)cc2)cc1)C1CC=CCC1 (configuration not stated)
7. CN(CCC1CCCCO1)c1nncc(-c2ccccc2)n1 (configuration not stated)
8. O=c1ccc(-c2ccc(F)cc2)nn1Cc1cccc(C(F)(F)F)c1

Out:
[60.2, 47.9, 99.7, -11.2, 86.9, 88.9, 52.4, 35.1]

Hey, can you go through the list below and give me inhibition for every item?
1. C=CCn1cnnc1SCC(=O)Nc1ccc(Br)c(C)c1
2. COc1ccc2c(=O)c3c(oc2c1)C(=O)N(c1nccs1)C3c1ccc(C(C)(C)C)cc1 (configuration not stated)
3. O=S(=O)(Nc1ccc(Br)cc1F)c1ccc(Cl)c(C(F)(F)F)c1
4. CCn1c(SCC(=O)c2cc(C)ccc2C)nnc1-c1ccco1
5. N[C@@H](C(=O)O)[C@@H](O)[C@H](O)[C@H](O)CO
6. Cc1cc(=O)[nH]c(-n2nc(C3CC3)cc2NC(=O)c2cccc3ccccc23)n1

Out:
1: 101; 2: 5.45; 3: 88.3; 4: 52.6; 5: -6.84; 6: 99.8

----------
experiment: Mycobacterium tuberculosis growth inhibition, primary screen (AID 1259343); conditions: at 10 µM, hits give high values
Hit rate of the full screen: of about 6,200 compounds, about 2,900 (47%) were called active. So high a share suggests a set chosen from earlier hits. The list shows a part of the results.
Exercise: state measured inhibition for each of the molecules provided.

The cases that follow already have their inhibition on record.
>>> result("COc1ccc(Cl)cc1C(=O)Nc1cc(C)nn1-c1nc(C)c(C)c(=O)[nH]1")
"100% (active)"
>>> result("O=C(NC1CCCCCC1)c1ccco1")
"55.1% (active)"
>>> result("CCNc1nc(=S)[nH]c2ccccc12")
"-44.3% (inactive)"
>>> result("CC(C)CNC(=O)CSc1n[nH]c(/C=C/c2ccc(F)cc2)n1")
"87% (active)"
>>> result("O=S(=O)(Nc1ccc(OC(F)F)c(Cl)c1)c1ccc(Cl)c(Cl)c1")
"-2.94% (inactive)"

Hey, can you go through the list below and give me inhibition for every item?
1. Cn1cnnc1SCC(=O)Nc1ccc2c(c1)CCC2
2. Cc1nc(-n2nc(-c3cccs3)cc2NC(=O)c2ccc(F)cc2)[nH]c(=O)c1C
3. CC(C)Cc1noc(Cn2cc(I)cn2)n1
4. O=C1CC(=O)CC2(CCCC2)C1
5. Cc1cc(=O)[nH]c(-n2nc(C3CC3)cc2NC(=O)c2ccc(F)c(F)c2)n1
6. CC1CCN(C(=O)c2ccc(-c3ccc(F)c(F)c3)s2)CC1

Out:
1. -17.5% (inactive)
2. 99.3% (active)
3. 91.5% (active)
4. 22.1% (inactive)
5. 99.9% (active)
6. 65.3% (active)

Hey, can you go through the list below and give me inhibition for every item?
1. Cc1c(C(=O)NC2CCCCC2)oc2ccccc12
2. Cc1nc(-n2nc(-c3cccs3)cc2NC(=O)c2ccccc2Cl)[nH]c(=O)c1C
3. CC(c1ccc(Cl)cc1)N(C)C(=O)c1ccc[nH]1 (stereo unspecified)
4. CN(Cc1nc(-c2ccccc2)no1)Cc1ccnc2ccccc12
5. Cc1ccc(S(=O)(=O)N=[N+]([O-])C2([N+](=O)[O-])COC(C)OC2)cc1 (stereo unspecified)

Out:
1. 90.9% (active)
2. 61% (active)
3. -3.09% (inactive)
4. -26.1% (inactive)
5. 102% (active)
